system: hDMFa myofibroblast cells
Structures can show the parent of a compound that is named as a salt.
Value type: Compound Myofibroblast Cytotoxicity Activity

{"Compound": "O=C1O[C@H](CO)[C@@H](O)[C@H](O)[C@H]1O", "Recorded measurement": "++"}
{"Compound": "Cn1nnc(-c2ccc(-c3ccc(N4C[C@H](CO)OC4=O)cc3F)cn2)n1 [Cmpd 920, Tedizolid HCl]", "Recorded measurement": "++++"}
{"Compound": "CNCC[C@H](Oc1cccc2ccccc12)c1cccs1 [Cmpd 397, Duloxetine HCl]", "Recorded measurement": "+++++"}
{"Compound": "CC1(C)C[C@@H]1C(=O)N/C(=C\\CCCCSC[C@H](N)C(=O)O)C(=O)O", "Recorded measurement": "++++"}
{"Compound": "CC(C)NCC(O)c1ccc(O)c(O)c1 (stereo not shown) [Cmpd 539, Isoproterenol sulfate dihydrate]", "Recorded measurement": "++"}
{"Compound": "O=C(O)CCCNC(=O)c1cccnc1", "Recorded measurement": "++"}
{"Compound": "CCOc1nc2cccc(C(=O)OCc3oc(=O)oc3C)c2n1Cc1ccc(-c2ccccc2-c2noc(=O)[nH]2)cc1", "Recorded measurement": "++"}
{"Compound": "CC1=CCC(O)(C(C)C)CC1 (stereo not shown)", "Recorded measurement": "++"}
{"Compound": "O=C1c2c(O)ccc(O)c2C(=O)c2c(NCCNCCO)ccc(NCCNCCO)c21 [Cmpd 682, Mitoxantrone HCl]", "Recorded measurement": "+++++"}
{"Compound": "CCCCCCCCCCCCOS(=O)(=O)O [Cmpd 871, Sodium dodecyl sulfate]", "Recorded measurement": "+++++"}
{"Compound": "C[C@H](CCC(=O)O)[C@H]1CC[C@H]2[C@@H]3CC[C@@H]4C[C@H](O)CC[C@]4(C)[C@H]3C[C@H](O)[C@]12C [Cmpd 339, Deoxycholic acid sodium salt]", "Recorded measurement": "+++++"}
{"Compound": "COC(=O)C1=C(C)NC(C)=C(C(=O)OC2CCCN(Cc3ccccc3)C2)C1c1cccc([N+](=O)[O-])c1 (stereo not shown) [Cmpd 161, Benidipine HCl]", "Recorded measurement": "++"}
{"Compound": "O=C(O)c1ccccc1", "Recorded measurement": "++"}
{"Compound": "CCC/C=C1\\OC(=O)C2=C1CCC=C2 [Cmpd 2, Z-Ligustilide]", "Recorded measurement": "++"}
{"Compound": "CC(C)=CCC/C(C)=C/CC/C(C)=C/CC/C(C)=C/CC1=C(C)C(=O)c2ccccc2C1=O", "Recorded measurement": "++"}
{"Compound": "NC(=O)c1cn(Cc2c(F)cccc2F)nn1 [Cmpd 843, Rufinamide]", "Recorded measurement": "+++"}
